Documented CLint scaled across a set of molecules
Test: Intrinsic clearance in rat liver microsomes at […] incubated for 10 mins before NADPH addition by LC/MS method
Assay type: ADME
Details: read-out: CLH

Completed entries (count: 3):
| compound_structure | test_value |
| --- | --- |
| Fc1cc2nc(-c3cccnc3)n(C3CC3)c2cc1F | < 20 mL/min/kg |
| CC(C)(O)c1cncc(-c2nc3cc(F)c(F)cc3n2C2CC2)c1 | < 20 mL/min/kg |
| Fc1cncc(-c2nc3cc(F)c(F)cc3n2C2CC2)c1 | < 20 mL/min/kg |

API: the following record is the query input.
Find the recorded CLint scaled belonging to CC(C)(O)c1cncc(-c2nc3ccc(F)cc3n2C2CC2)c1 and report it.
< 20 mL/min/kg

----------
Biological target: Cytochrome P450 11B1, mitochondrial (Homo sapiens, UniProt P15538)
Sequence (P15538 whole entry): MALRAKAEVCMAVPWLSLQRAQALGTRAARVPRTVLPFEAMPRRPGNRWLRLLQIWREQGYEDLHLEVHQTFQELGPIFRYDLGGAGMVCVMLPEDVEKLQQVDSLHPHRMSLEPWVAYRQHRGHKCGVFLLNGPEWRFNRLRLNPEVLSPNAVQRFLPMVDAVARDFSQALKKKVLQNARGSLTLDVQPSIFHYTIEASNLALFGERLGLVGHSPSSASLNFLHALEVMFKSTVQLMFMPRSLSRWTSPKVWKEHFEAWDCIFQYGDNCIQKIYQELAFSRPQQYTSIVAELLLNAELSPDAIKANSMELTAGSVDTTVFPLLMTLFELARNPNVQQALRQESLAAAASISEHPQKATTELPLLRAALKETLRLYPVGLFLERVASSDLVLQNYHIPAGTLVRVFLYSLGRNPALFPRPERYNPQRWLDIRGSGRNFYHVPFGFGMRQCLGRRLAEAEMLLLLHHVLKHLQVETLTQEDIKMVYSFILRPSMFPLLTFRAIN
Assay: Inhibition of human CYP11B1 expressed in V79 cells incubated for 1 hr before 11-deoxycortisol substrate addition by HTRF-based assay
Form field: IC50 (one value per entry).

# get_value(readout='IC50', item= N#Cc1cc2c(cc1F)nc(-c1cccnc1)n2C1CC1 )
0.117 µM

Can you look up the measured IC50 of Fc1cncc(-c2nc3cc(F)c(F)cc3n2C2CC2)c1 for me?
0.435 µM

Could you share which IC50 value was measured for Cn1c(-c2cccnc2)nc2ccc(F)cc21 ?
0.677 µM

----------
Molecular target: Cytochrome P450 11B2, mitochondrial (Homo sapiens, UniProt P19099)
Sequence (P19099 whole entry): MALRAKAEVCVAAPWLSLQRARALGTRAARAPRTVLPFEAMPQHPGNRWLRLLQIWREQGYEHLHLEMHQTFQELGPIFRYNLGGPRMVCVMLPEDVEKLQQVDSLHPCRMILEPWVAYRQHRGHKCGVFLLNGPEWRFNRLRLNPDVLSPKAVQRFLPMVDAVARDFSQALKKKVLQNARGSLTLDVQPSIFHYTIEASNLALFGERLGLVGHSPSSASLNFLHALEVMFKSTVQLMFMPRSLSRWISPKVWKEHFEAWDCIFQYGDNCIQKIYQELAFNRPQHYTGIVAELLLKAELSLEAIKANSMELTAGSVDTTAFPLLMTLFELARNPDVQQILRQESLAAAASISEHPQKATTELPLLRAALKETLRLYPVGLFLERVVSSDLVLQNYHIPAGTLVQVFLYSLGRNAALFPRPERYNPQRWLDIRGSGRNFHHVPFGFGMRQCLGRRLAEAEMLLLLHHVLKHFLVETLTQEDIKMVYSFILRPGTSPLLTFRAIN
Test: Inhibition of human CYP11B2 expressed in V79 cells incubated for 1 hr before 11-deoxycorticosterone substrate addition by HTRF-based assay
Listed here: items and their measured IC50.

| compound_structure | IC50 |
| --- | --- |
| CC(C)(C)n1c(-c2cccnc2)nc2ccc(F)cc21 | > 5000 nM |
| COc1ccc2nc(-c3cccnc3)n(C3CC3)c2c1 | 24 nM |

Let us examine a further case.
GET /values?readout=IC50&item= N#Cc1cc2c(cc1F)nc(-c1cncc(F)c1)n2C1CC1
1 nM

----------
Molecular target: Cytochrome P450 11B1, mitochondrial (Homo sapiens)
Assay: Inhibition of human CYP11B1 expressed in V79 cells incubated for 1 hr before 11-deoxycortisol substrate addition by HTRF-based assay
Listed below: IC50 values for each entry.

Sample answers from the record:
| compound | test_value |
| --- | --- |
| COc1ccc2c(c1)nc(-c1cccnc1)n2C1CC1 | > 10 µM |
| Fc1cccc2nc(-c3cccnc3)n(C3CC3)c12 | > 10 µM |
| Fc1ccc2nc(-c3cccnc3)n(Cc3ccccc3)c2c1 | > 8.33 µM |
| CC(C)(C)n1c(-c2cccnc2)nc2ccc(F)cc21 | > 10 µM |
| CS(=O)(=O)c1ccc2c(c1)nc(-c1cccnc1)n2C1CC1 | > 10 µM |

// fetch Cytochrome P450 11B1, mitochondrial (Homo sapiens) IC50 for FC(F)(F)c1ccc2c(c1)nc(-c1cccnc1)n2C1CC1 [MSD-CYP11B2-Negative-control]
> 10 µM

Requested read-out IC50, target or system Cytochrome P450 11B1, mitochondrial (Homo sapiens), entry Fc1ccc2nc(-c3cccnc3)n(C3CCC3)c2c1
> 10 µM

Please provide the recorded IC50 for N#Cc1ccc2c(c1)nc(-c1cccnc1)n2C1CC1 , tested on Cytochrome P450 11B1, mitochondrial (Homo sapiens).
> 10 µM

Identify the measured IC50 of Fc1cccc2c1nc(-c1cccnc1)n2C1CC1 for Cytochrome P450 11B1, mitochondrial (Homo sapiens).
> 8.33 µM
